# MEASUREMENT_TARGET: T1, Nluc-IL23R fusion protein (human, UniProt Q5VWK5 22-629)
# T1 construct: range 22-629; Stably expressed in HEK293 cells; also called hIL-23R; human IL-23R; not shown: Nanoluc protein (N1371, Promega) at the N-terminus, after a secretion signal
# T1 sequence (looked up): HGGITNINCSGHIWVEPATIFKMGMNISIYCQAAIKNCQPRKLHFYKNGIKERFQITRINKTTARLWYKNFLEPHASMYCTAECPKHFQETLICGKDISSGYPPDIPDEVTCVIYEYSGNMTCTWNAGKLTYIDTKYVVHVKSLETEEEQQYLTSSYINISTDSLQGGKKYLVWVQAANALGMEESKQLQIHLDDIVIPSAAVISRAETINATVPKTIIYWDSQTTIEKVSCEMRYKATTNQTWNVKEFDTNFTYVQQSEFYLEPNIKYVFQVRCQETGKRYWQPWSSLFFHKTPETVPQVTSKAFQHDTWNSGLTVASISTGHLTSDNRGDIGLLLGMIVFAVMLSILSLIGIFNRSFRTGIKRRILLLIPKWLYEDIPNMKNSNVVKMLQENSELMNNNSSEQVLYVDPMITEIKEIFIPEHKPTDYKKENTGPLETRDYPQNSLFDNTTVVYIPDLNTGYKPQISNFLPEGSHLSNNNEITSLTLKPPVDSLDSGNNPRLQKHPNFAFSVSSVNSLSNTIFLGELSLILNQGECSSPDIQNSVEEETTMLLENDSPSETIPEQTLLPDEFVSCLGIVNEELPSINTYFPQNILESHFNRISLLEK
# ASSAY: BRET competition vs TAMRA-labelled peptide, Nluc-IL23R membranes
*1 amine or outer side, *2 acyl side, *3 side chain or, on linkers, in order; H or OH if unused. Bridges are numbered along the chain shown (N, C = ends). [ ]: non-standard residue; d: D form. The star is where a group is joined. γDab = iso-Dab: Dab joined to preceding residue by its side-chain amine, O=C([C@H](CCN[*:1])N[*:3])[*:2]; 2‑Amino‑6‑carboxyhexanoyl = 2-aminoheptanedioic acid residue; Propanoyl(3-(3-pyridyl)) = O=C(CCc1cccnc1)*; Phe(4-Me) = Cc1ccc(C[C@H](N)C(=O)O)cc1; 2Nal = N[C@@H](Cc1ccc2ccccc2c1)C(=O)O; AEF = NCCOc1ccc(C[C@H](N)C(=O)O)cc1; 3Pal = N[C@@H](Cc1cccnc1)C(=O)O; αMeL = CC(C)C[C@](C)(N)C(=O)O; dDab = NCC[C@@H](N)C(=O)O; Dab = NCC[C@H](N)C(=O)O
Record form. Attribute: pIC50. Fill in for each entry.
The scale used: pIC50 is minus the common logarithm of the concentration in molar units.

Input: What value of pIC50 has been reported for the following binder? EWQEXXXXXX ([iso-Glu](1c)^‡(6c)^†WQE(6c)[Y(2-aminoethoxy)][2-Nal][2-Me-Leu][Dab](1c)[Dab][3-(3-Pyridyl)-Ala]-[NHMe]; (1c) [2,11] lactam; (6c) [2,7] lactam; ^† alpha-amine in bridge; ^‡ alpha-carboxylic acid in bridge) [Compound 107]
Output: 7.85

Input: Same again, this time with KTVWQE[Phe(4-Me)][2Nal][αMeL][γDab](6‑(3-pyridyl)hexanoyl) (lactam 1-C, N-6; also: iso-Dab joined to preceding residue via its side-chain amine) [Compound 25]
Output: 6.08

Input: Same again, this time with KTVWQE[Phe(4-Me)][2Nal][αMeL][γDab](Propanoyl(3-(3-pyridyl))) (lactam 1-C, N-6; also: iso-Dab joined to preceding residue via its side-chain amine) [Compound 24]
Output: 6.55

Input: Same again, this time with [dDab]TWQD[AEF][2Nal][αMeL][2‑Amino‑6‑carboxyhexanoyl][Dab][3Pal]-NH2 (lactam 1-9, N-5) [Compound 15]
Output: 8.31

Input: Same again, this time with EIVWQEXXXXXX (E(1c)(6c)^†IVWQE(6c)[Y(2-aminoethoxy)][2-Nal][2-Me-Leu][K(Me)](1c)[Dab][3-(3-Pyridyl)-Ala]-[NHMe]; (1c) [2,11] lactam; (6c) [2,7] lactam; ^† alpha-amine in bridge) [Compound 74]
Output: 10.12
